# System: Fluoroquinolone Sensitive Strains
# run_description: In-vitro antimicrobial test (MIC, two-fold serial agar dilution, NCCLS), Table 17
# Assay type: cell-based
# experimental_conditions: Staphylococcus aureus, ATCC 25923 / MSSA, MSSA ATCC 25923
reported_endpoint: MIC (µg/mL)
Kindly provide the numeric value in µg/mL only, without the unit symbol.

molecule	system	unit_abbrev	experimental_result
COc1c(N2CCC(NC3CC3)C(C)(C)C2)c(F)c(N)c2c(=O)c(C(=O)O)cn(C3CC3)c12 (stereo not shown)	Fluoroquinolone Sensitive Strains	µg/mL	0.05

Prompt: Need MIC of CCOC(=O)NC1CCN(c2c(F)cc3c(=O)c(C(=O)O)cn(C4CC4)c3c2OC)CC1(C)C (stereo not shown) , thanks.
Completion: 0.05

Prompt: Need MIC of CCn1cc(C(=O)O)c(=O)c2cc(F)c(N3CC(C)C(NC)C(C)C3)c(OC)c21 (stereo not shown) , thanks.
Completion: 0.05

Prompt: Need MIC of COc1c(N2CC(C)C(NC3CC3)C(C)C2)c(F)cc2c(=O)c(C(=O)O)cn(C3CC3)c12 (stereo not shown) , thanks.
Completion: 1.56

Prompt: Need MIC of Cc1c(N2CCC(N)C(C)(C)C2)c(F)cc2c(=O)c(C(=O)O)cn(C3CC3)c12.Cl (racemic) [Compound 102] , thanks.
Completion: 0.025

Prompt: Need MIC of CCOC(=O)NC1CCN(c2c(F)c(N)c3c(=O)c(C(=O)O)cn(C4CC4)c3c2OC)CC1(C)C (stereo not shown) , thanks.
Completion: 0.05

Prompt: Need MIC of Cc1c(N2CCC(N)C(C)(C)C2)c(F)c(N)c2c(=O)c(C(=O)O)cn(C3CC3)c12 (single isomer, unassigned; (-)) [Compound 133] , thanks.
Completion: 0.025
